Cited source: patent EP0412762A2

Experimental System: RBG Protein/E7 (Homo sapiens)
Sequence (P06400 1-928): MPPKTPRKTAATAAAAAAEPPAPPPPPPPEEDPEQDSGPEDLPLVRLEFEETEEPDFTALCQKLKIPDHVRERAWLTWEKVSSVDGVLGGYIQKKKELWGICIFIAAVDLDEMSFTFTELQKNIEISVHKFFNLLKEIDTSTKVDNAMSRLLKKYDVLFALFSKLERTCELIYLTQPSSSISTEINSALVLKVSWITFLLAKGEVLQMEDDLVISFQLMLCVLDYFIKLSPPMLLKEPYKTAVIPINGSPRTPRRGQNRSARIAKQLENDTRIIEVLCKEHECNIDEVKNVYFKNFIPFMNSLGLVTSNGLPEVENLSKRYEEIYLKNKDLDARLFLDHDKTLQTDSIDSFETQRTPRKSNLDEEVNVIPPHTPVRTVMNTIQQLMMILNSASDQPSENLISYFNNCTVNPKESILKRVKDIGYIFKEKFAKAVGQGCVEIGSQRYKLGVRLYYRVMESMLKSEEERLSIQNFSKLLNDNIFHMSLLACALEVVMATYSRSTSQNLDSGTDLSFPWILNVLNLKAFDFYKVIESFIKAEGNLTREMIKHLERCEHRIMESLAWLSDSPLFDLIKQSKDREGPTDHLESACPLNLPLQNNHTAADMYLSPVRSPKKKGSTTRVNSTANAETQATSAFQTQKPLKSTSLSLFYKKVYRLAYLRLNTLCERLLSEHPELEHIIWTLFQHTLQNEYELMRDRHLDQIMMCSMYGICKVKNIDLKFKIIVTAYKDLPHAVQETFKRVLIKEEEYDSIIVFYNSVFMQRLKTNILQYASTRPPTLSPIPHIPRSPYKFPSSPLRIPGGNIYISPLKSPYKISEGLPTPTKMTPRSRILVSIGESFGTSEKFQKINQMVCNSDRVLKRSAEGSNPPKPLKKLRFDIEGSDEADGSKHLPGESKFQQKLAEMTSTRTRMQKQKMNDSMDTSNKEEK
Test Method Notes: Plate binding assay for E7/RBG protein association (E7-coated plate, 35S-labelled RBG protein)
Design: made in house; host or cells: rabbit reticulocyte lysate (RB, in vitro translation)
No end group written: not given here.
Reported Metric: IC50 (nM)

Substance: TDLYCYEQLNDSS-NH2 [Peptide 1, E7-(20-32)-AMIDE]
Reported Result: 50
//
Substance: DLYCYEQLNDSS-NH2 [Peptide 10, E7-(21-32)-AMIDE]
Reported Result: 11400
//
Substance: TDLYCYEQLND-NH2 [Peptide 2, E7-(20-30)-AMIDE]
Reported Result: 80
//
Substance: Ac-TDLYCYEQLN [Peptide 12, N-Ac-E7-(20-29)-ACID]
Reported Result: 60
//
Substance: TDLYCYEQLN-NH2 [Peptide 9, E7-(20-29)-AMIDE]
Reported Result: 90
//
Substance: Ac-DLYCYEQLN-NH2 [Peptide 14, N-Ac-E7-(21-29)-AMIDE]
Reported Result: 40
//
Substance: Ac-TDLYCYEQLN-NH2 [Peptide 13, N-Ac-E7-(20-29)-AMIDE]
Reported Result: 80
//
Substance: TDLYCYEQLN [Peptide 11, E7-(20-29)-ACID]
Reported Result: 80

* * *

Experimental System: RBG Protein/E7 (Homo sapiens, UniProt P06400)
Test Method Notes: In vitro solution assay for E7/RBG protein complex formation (immunoprecipitation, T24 cell lysates)
Assay type: binding
Parameters: Cell lysates used as a source of RBG protein were prepared from human T24 bladder carcinoma cells; endogenous in cells; host or cells: human T24 bladder carcinoma cell lysate
pIC50: −log10 of the molar value. No end group written: not given here.
Measured pIC50 accompanies every entry in the list below.
Reported Metric: pIC50

Substance: TDLYCYEQLNDSS-NH2 [Peptide 1, E7-(20-32)-AMIDE]
Reported Result: 6.00
//
Substance: TDLYCYEQLN-NH2 [Peptide 9, E7-(20-29)-AMIDE]
Reported Result: 6.00
//
Substance: Ac-DLYCYEQLN-NH2 [Peptide 14, N-Ac-E7-(21-29)-AMIDE]
Reported Result: 6.00
//
Substance: DLYCYEQLNDSS-NH2 [Peptide 10, E7-(21-32)-AMIDE]
Reported Result: 4.70
//
Substance: TDLYCYEQLND-NH2 [Peptide 2, E7-(20-30)-AMIDE]
Reported Result: 6.00

* * *

Experimental System: RBG Protein/E7 (Homo sapiens)
Sequence (P06400 1-928): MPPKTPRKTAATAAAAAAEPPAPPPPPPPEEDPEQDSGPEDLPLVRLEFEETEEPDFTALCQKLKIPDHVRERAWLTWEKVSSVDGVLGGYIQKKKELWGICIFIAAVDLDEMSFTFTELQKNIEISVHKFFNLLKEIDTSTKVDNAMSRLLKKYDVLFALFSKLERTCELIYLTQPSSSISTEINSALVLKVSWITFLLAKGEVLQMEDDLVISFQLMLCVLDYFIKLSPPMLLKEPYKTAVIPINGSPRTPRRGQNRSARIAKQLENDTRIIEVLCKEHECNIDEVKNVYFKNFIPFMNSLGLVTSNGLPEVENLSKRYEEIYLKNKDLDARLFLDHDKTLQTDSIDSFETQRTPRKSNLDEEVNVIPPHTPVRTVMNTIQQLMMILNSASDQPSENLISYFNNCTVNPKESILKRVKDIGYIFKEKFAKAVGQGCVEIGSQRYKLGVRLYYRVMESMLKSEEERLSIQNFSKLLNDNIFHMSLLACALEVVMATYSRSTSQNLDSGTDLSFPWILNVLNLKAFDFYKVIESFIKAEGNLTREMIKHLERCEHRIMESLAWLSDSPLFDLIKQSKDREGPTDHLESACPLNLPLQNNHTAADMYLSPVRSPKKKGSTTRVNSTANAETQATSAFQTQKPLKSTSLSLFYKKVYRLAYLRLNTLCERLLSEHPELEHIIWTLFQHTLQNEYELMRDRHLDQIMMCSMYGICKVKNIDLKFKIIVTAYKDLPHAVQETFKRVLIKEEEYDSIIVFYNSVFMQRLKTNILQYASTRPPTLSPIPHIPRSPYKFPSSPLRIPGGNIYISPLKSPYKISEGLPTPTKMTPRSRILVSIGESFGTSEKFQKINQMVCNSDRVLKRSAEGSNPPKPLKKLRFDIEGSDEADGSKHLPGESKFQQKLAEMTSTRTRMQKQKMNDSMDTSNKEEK
Test Method Notes: In vitro solution assay for E7/RBG protein complex formation (immunoprecipitation, T24 cell lysates)
Type: binding
Design: Cell lysates used as a source of RBG protein were prepared from human T24 bladder carcinoma cells; endogenous in cells; host or cells: human T24 bladder carcinoma cell lysate
Experimental Context: average of at least two experiments, triplicate; read-out: SOLUTION ASSAY RBG Protein/E7 IC₅₀
pIC50: −log10 of the molar value. No end group written: not given here.

Substance: TDLYCYENLND-NH2 [Peptide 23, [Asn²⁷]-E7-(20-30)-AMIDE]
Experimental System: RBG Protein/E7 (Homo sapiens)
Readout Qualifier: =
pIC50: 6.00
--
Substance: TDLYSYEQLNDSS-NH2 [Peptide 16, [Ser²⁴]-E7-(20-32)-AMIDE]
Experimental System: RBG Protein/E7 (Homo sapiens)
Readout Qualifier: =
pIC50: 4.40
--
Substance: TDLYCYQQL-NH2 [Peptide 21, [Gln²⁶]-E7-(20-28)-AMIDE]
Experimental System: RBG Protein/E7 (Homo sapiens)
Readout Qualifier: <
pIC50: 4.00
--
Substance: Ac-LYCYEQLNDSS-NH2 [Peptide 15, N-Ac-E7-(22-32)-AMIDE]
Experimental System: RBG Protein/E7 (Homo sapiens)
Readout Qualifier: =
pIC50: 5.00
--
Substance: TNLYCYEQL-NH2 [Peptide 22, [Asn²¹]-E7-(20-28)-AMIDE]
Experimental System: RBG Protein/E7 (Homo sapiens)
Readout Qualifier: <
pIC50: 4.00
--
Substance: TDLYCYEQL-NH2 [Peptide 4, E7-(20-28)-AMIDE]
Experimental System: RBG Protein/E7 (Homo sapiens)
Readout Qualifier: =
pIC50: 5.30
--
Substance: TDLYCYEQ-NH2 [Peptide 5, [Gln27]]-E7-(20-27)-AMIDE]
Experimental System: RBG Protein/E7 (Homo sapiens)
Readout Qualifier: =
pIC50: 4.30
--
Substance: TDLYCYE-NH2 [Peptide 6, E7-(20-26)-AMIDE]
Experimental System: RBG Protein/E7 (Homo sapiens)
Readout Qualifier: =
pIC50: 4.00
--
Substance: E7-(18-29)-AMIDE (ETTDLYCYEQLN-NH2; UniProt P03129 18-29, looked up, fragment) [Peptide 8]
Experimental System: RBG Protein/E7 (Homo sapiens)
Readout Qualifier: =
pIC50: 6.40
--
Substance: TDLFCYEQLN-NH2 [Peptide 19, [Phe²³]-E7-(20-29)-AMIDE]
Experimental System: RBG Protein/E7 (Homo sapiens)
Readout Qualifier: =
pIC50: 6.00
--
Substance: TDLYCFEQLN-NH2 [Peptide 20, [Phe²⁵]-E7-(20-29)-AMIDE]
Experimental System: RBG Protein/E7 (Homo sapiens)
Readout Qualifier: =
pIC50: 4.82
